EXPERIMENT: Toxicity liver stage against HepG2, at 10uM
Type: cell-based
Set-up: test concentration 10 uM, cell line HepG2-A16-CD81EGFP
CONDITION_CONTEXT: human, HepG2-A16-CD81EGFP cells; read-out: INHIBITION
The entries below are paired with their reported cytotoxicity at 10 µM.

[
  {
    "COMPOUND": "Cc1ccc(O)c(C(=O)N2C[C@@H](C(=O)O)[C@H](c3ccccc3)C2)c1",
    "cytotoxicity at 10 µM (%)": 0.00559
  },
  {
    "COMPOUND": "N#Cc1ccc(N2CCC3(CCC(=O)N3Cc3cccnc3)CC2)nc1",
    "cytotoxicity at 10 µM (%)": -112
  },
  {
    "COMPOUND": "CCNc1cc2c(nn1)CCN(C(=O)C1Cc3ccccc3S1)C2 (stereo not drawn)",
    "cytotoxicity at 10 µM (%)": -1.4
  },
  {
    "COMPOUND": "CC(=O)c1cn(CC(=O)N2CCCC(O)(CO)C2)c2ccccc12 (stereo not drawn)",
    "cytotoxicity at 10 µM (%)": -4.87
  },
  {
    "COMPOUND": "Cc1ccc(-n2nnc(CC(=O)N3CCOCC3)c2C)cc1",
    "cytotoxicity at 10 µM (%)": -12.9
  },
  {
    "COMPOUND": "Cc1cnc(N2CCc3cc(C(=O)O)c(N(C)C)nc3CC2)nc1",
    "cytotoxicity at 10 µM (%)": -104
  },
  {
    "COMPOUND": "Cc1nc(C2CN(Cc3ccc(F)cc3Br)CCO2)no1 (stereo not drawn)",
    "cytotoxicity at 10 µM (%)": -4.75
  },
  {
    "COMPOUND": "CC1(C)CN(CCC(=O)NCc2cccc(Cl)c2)CC[C@]1(C)O",
    "cytotoxicity at 10 µM (%)": -3.45
  }
]
